SYSTEM TESTED: ScCyk3
ASSAY SUMMARY: SPOT peptide array binding signal intensity (averaged, normalized) (arbitrary units (background-subtracted, floor 0; scale differs between SH3 domains)); higher = stronger binding of the SH3 domain to the peptide
Measured SPOT peptide array binding signal intensity accompanies every entry in the list below.
PROPERTY MEASURED: SPOT peptide array binding signal intensity

{"columns": ["BINDER", "RELATION QUALIFIER", "ASSAY RESULT"],
 "data": [
  ["ISRRRLPVIMHRLKM", "=", 49],
  ["SHRLWLYAAPKRPKT", "=", 20],
  ["RVRKTHVPASKRPSG", "=", 51],
  ["AERNYAPRLPRRETS", "=", 2.25],
  ["HAPPLPPTAPPPPSL", "≤", 0],
  ["VDFTLPPPPPPPGLD", "=", 1],
  ["SSSSTPPTLPPRRIE", "=", 2]
]}
